assaySystem: GABA-A receptor; anion channel
method: In vitro inhibition of 3[H]Diazepam binding to Benzodiazepine receptor from rat cerebral cortical membranes
Assay type: cell membranes, Membrane
resultType: IC50 (nM)

>>> df
                           testsmiles  unitabbrev  reported
0  COC(=O)c1cc2c3ccccc3n(C(C)=O)c2cn1          nM         9

1: CCOC(=O)c1cc2c(cn1)nc(O)c1ccccc12
2: COC(=O)c1cc2c3ccccc3n3c(=O)ccc(n1)c23
3: CCc1nc2c3ccccc3[nH]c2c2c1[nH]c1ccccc12
Ascending by IC50, please. Lab note: final answer is the ordered label list.
2, 3, 1

---

assaySystem: GABA-A receptor; anion channel
method: In vitro inhibition of 3[H]Diazepam binding to Benzodiazepine receptor from rat cerebral cortical membranes
Format: cell membranes, Membrane
resultType: IC50 (µM)

Solved entries (count: 6):
In [3]: df
Out[3]:
                                 testsmiles  reported
0         CCc1nc(C(=O)OC)cc2c1[nH]c1ccccc12      7.54
1          CCOC(=O)c1cc2c(cn1)[nH]c1ccccc12     0.005
2            CCOC(=O)c1cc2c(cn1)Cc1ccccc1-2      0.68
3    CC(C)(C)COC(=O)c1cc2c3ccccc3nc-2c[nH]1      0.75
4  C[n+]1cc2[nH]c3ccccc3c2c2[nH]c3ccccc3c21      4.66
5                   Cc1nccc2c1[nH]c1ccccc12      12.4

a: Cc1cccc2[nH]c3c4c5ccccc5nc-4c[nH]c3c12
b: CC(C)(C)OC(=O)c1cc2c3ccccc3nc-2c[nH]1
c: c1ccc2c(c1)[nH]c1c2ccc2[nH]c3ccccc3c21
Rank descending by IC50. Lab note: final answer is the ordered label list.
a, c, b
(a: 6.86 µM, c: 1.97 µM, b: 0.01 µM)

---

assaySystem: GABA-A receptor; anion channel
method: In vitro inhibition of 3[H]Diazepam binding to Benzodiazepine receptor from rat cerebral cortical membranes
Format: cell membranes, Membrane
pIC50: −log10 of the molar value.
resultType: pIC50

Solved entries (count: 2):
In [3]: df
Out[3]:
                                 testsmiles                     assaysystem  reported
0      CCOC(=O)c1cc2c3ccccc3c(N=O)c-2c[nH]1  GABA-A receptor; anion channel      5.30
1  Cc1ccc2c(c1)[nH]c1c3c4ccccc4nc-3c[nH]c12  GABA-A receptor; anion channel      8.00

a: CCCCOc1cc2c(cn1)[nH]c1ccccc12
b: CCOC(=O)c1cc2c(cn1)oc1ccccc12
I'm curious whether a or b has the smaller pIC50 number. Which is it? Please reply using the label of the selected record.
b
(b: 5.04, a: 7.01)

P: CCOC(=O)c1cc2c(cn1)sc1ccccc12
Q: COC(=O)c1cc2[nH]c3ccccc3c2cn1
Between the two listed entries P and Q , which has its pIC50 at the higher number? Please reply using the label of the selected record.
Q
(Q: 6.19, P: 5.77)

1: CC(C)Oc1cc2c(cn1)[nH]c1ccccc12
2: CCCCc1cc2c(cn1)[nH]c1ccccc12
I'm curious whether 1 or 2 has the smaller pIC50 number. Which is it? Please reply using the label of the selected record.
1
(1: 6.30, 2: 6.61)
